System: HT29
Settings: 72 h, relative to DMSO; 10 µM
Procedure: To investigate the key signaling pathways and biological processes involved in CRC progression, we analyzed the National Center for Biotechnology Information Gene Expression Omnibus (GEO) dataset GSE115313, which included 42 CRC and paired normal tissues (Figure 1A). […] Absorbance at the wavelength of 450 nm was measured using an automated microplate spectrophotometer (BioTek Instruments, Winooski, VT, USA).
Structures can show the parent of a compound that is named as a salt.
Here the recorded Relative cell viability (%) is given for each entry.
Respond numerically; units are % and should not be typed.

Worked cases, Relative cell viability (%) given:
CNC(=O)[C@H](Cc1c[nH]c2ccccc12)NC(=O)[C@@H](CC(=O)NO)CC(C)C
95.73
CCOC(=O)[C@H](CCc1ccccc1)N[C@@H](C)C(=O)N1[C@H](C(=O)O)C[C@@H]2CCC[C@@H]21
75.42
O=C1OC(CN2CCOCC2)CN1/N=C/c1ccc([N+](=O)[O-])o1 (centres unmarked) [Furaltadone HCl]
75.76

Give the value of Relative cell viability (%) reported for the following: COc1cc2ncnc(Nc3ccc(F)c(Cl)c3)c2cc1NC(=O)/C=C/CN1CCCCC1
11.17

Indicate the recorded Relative cell viability (%) value for this compound: [H]/N=C(\N/C(=N/[H])NCCCCCCNC(=N)NC(=N)Nc1ccc(Cl)cc1)Nc1ccc(Cl)cc1 [Chlorhexidine HCl]
28.64

Specify Relative cell viability (%) for C[C@@H]1C[C@H]2[C@@H]3CCC4=CC(=O)C=C[C@]4(C)[C@@]3(F)[C@@H](O)C[C@]2(C)[C@@]1(O)C(=O)CO and stop.
75.86

Tell us which Relative cell viability (%) value is on record for Cc1ccc(-n2nccn2)c(C(=O)N2CCN(c3nc4cc(Cl)ccc4o3)CC[C@H]2C)c1
90.6

Respond only with Relative cell viability (%) recorded for Cc1c(OCC(F)(F)F)ccnc1C[S+]([O-])c1nc2ccccc2[nH]1 (centres unmarked)
63.4

Could you please provide reported Relative cell viability (%) for Cc1c(C(=O)NN2CCCCC2)nn(-c2ccc(Cl)cc2Cl)c1-c1ccc(Cl)cc1 ? Thanks!
79.61

Output measured Relative cell viability (%) for this item: CNC(=O)c1cc(Oc2ccc(NC(=O)Nc3ccc(Cl)c(C(F)(F)F)c3)cc2)ccn1
21.37

Please supply the value of reported Relative cell viability (%) for the item Nc1ccc(S(=O)(=O)Nc2ncccn2)cc1
85.59

Specify reported Relative cell viability (%) for the compound shown: C=CCc1cc(OC)c(O)c(C(=O)NCCO)c1 [Alibendol]
149.2

Give the reported value of Relative cell viability (%) for this record: CCCCN1CCCCC1C(=O)Nc1c(C)cccc1C (centres unmarked) [Bupivacaine HCl]
106.7

Read off the recorded Relative cell viability (%) for Nc1c(CC(=O)O)cccc1C(=O)c1ccc(Br)cc1 [Bromfenac Sodium]
78.48

Provide Relative cell viability (%) value for the following compound: Clc1ccc2c(c1)C(N1CCNCC1)=Nc1ccccc1O2
73.94

Fill in reported Relative cell viability (%) for this entry: COc1ccccc1N1CCN(CCCNc2cc(=O)n(C)c(=O)n2C)CC1 [Urapidil HCl]
222.9

For the compound C#C[C@]1(O)CC[C@H]2[C@@H]3CCc4cc(OC)ccc4[C@H]3CC[C@@]21C , report Relative cell viability (%).
119.6
